target: Serine/threonine-protein kinase 3 (Homo sapiens) (UniProt Q13188); assay: Binding affinity to recombinant MST2 (unknown origin) assessed as change in melting temperature by DSF analysis
Sequence (Q13188 whole entry): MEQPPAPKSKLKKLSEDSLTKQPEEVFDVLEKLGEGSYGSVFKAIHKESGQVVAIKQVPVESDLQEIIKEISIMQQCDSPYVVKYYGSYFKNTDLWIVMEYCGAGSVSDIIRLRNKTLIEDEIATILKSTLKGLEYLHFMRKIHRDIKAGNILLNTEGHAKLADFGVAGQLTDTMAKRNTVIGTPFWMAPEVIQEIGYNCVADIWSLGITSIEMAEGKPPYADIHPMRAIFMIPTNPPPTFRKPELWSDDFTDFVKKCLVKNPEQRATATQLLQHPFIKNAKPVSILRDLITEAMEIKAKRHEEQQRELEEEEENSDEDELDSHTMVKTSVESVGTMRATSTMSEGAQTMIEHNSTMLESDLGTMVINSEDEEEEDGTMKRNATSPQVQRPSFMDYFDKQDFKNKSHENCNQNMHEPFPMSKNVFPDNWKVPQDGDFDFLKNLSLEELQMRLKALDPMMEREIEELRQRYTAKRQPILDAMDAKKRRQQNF
Metric: ΔTm (°C)
Provide the reading as a plain figure in °C.

Example compounds with recorded ΔTm:
>  <Molecular String>
CNc1ncc2cc(-c3ccc(-c4cccc(C)n4)cc3Cl)c(=O)n(CCCCO)c2n1

>  <ΔTm (°C)>
7.1

$$$$
>  <Molecular String>
Cc1cccc(-c2ccc(-c3cc4cnc(NCCCN5CCNCC5)nc4n(CCCCN)c3=O)c(Cl)c2)n1

>  <ΔTm (°C)>
15.8

$$$$

Entry CNc1ncc2cc(-c3ccc(-c4cccc(C)n4)cc3Cl)c(=O)[nH]c2n1 ; ΔTm = 0.3

Entry CNc1ncc2cc(-c3ccc(-c4cccc(C)n4)cc3Cl)c(=O)n(CCCCCO)c2n1 ; ΔTm = 6.1

Entry CNc1ncc2cc(-c3ccc(-c4cccc(C)n4)cc3Cl)c(=O)n(CCCCOC)c2n1 ; ΔTm = 8.6

Entry COc1ccc(O)c(Nc2ncc3cc(-c4ccc(-c5cccc(C)n5)cc4Cl)c(=O)n(CCCCN)c3n2)c1 ; ΔTm = 5.4

Entry CNc1ncc2cc(-c3ccc(-c4cccc(C)n4)cc3Cl)c(=O)n(CCN)c2n1 ; ΔTm = 1.6

Entry CNc1ncc2cc(-c3ccc(-c4cccc(C)n4)cc3Cl)c(=O)n(CCCOC)c2n1 ; ΔTm = 6.2

Entry CNc1ncc2cc(-c3ccc(-c4cccc(C)n4)cc3Cl)c(=O)n(CCOC)c2n1 ; ΔTm = 5

----------
molecular target: Serine/threonine-protein kinase 26 (Homo sapiens, UniProt Q9P289); experiment: Inhibition of MST4 (unknown origin) expressed in HEK293T cells using NanoGlo as substrate incubated for 20 hrs by NanoBRET assay
Sequence (Q9P289 whole entry): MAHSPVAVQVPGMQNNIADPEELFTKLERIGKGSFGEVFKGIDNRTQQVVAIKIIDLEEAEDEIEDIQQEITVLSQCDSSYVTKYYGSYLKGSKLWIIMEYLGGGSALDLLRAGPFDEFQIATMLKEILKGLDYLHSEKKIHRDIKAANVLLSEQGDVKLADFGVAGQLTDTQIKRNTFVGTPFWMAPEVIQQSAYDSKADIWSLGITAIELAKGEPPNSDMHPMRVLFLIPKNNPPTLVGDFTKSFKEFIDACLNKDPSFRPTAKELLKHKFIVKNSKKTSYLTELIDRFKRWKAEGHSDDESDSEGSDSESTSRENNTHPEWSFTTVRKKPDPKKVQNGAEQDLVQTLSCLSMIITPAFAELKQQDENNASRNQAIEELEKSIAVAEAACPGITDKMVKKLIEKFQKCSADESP
Metric: EC50 (µM)
Provide the reading as a plain figure in µM.

Example molecules with recorded EC50:
>  <Molecular String>
Cc1cccc(-c2ccc(-c3cc4cnc(Nc5ccc(F)c(CO)c5)nc4n(CCCCN)c3=O)c(Cl)c2)n1

>  <EC50 / µM>
0.044

$$$$
>  <Molecular String>
CNc1ncc2cc(-c3ccc(-c4cccc(C)n4)cc3Cl)c(=O)n(CCN)c2n1

>  <EC50 / µM>
14.8

$$$$
>  <Molecular String>
CNc1ncc2cc(-c3ccc(-c4cccc(C)n4)cc3Cl)c(=O)n(CCCCO)c2n1

>  <EC50 / µM>
4

$$$$
>  <Molecular String>
Cc1cccc(-c2ccc(-c3cc4cnc(Nc5ccc(O)cc5)nc4n(CCCCN)c3=O)c(Cl)c2)n1

>  <EC50 / µM>
0.044

$$$$
>  <Molecular String>
Cc1cccc(-c2ccc(-c3cc4cnc(NC(CO)CO)nc4n(CCCCN)c3=O)c(Cl)c2)n1

>  <EC50 / µM>
0.583

$$$$
>  <Molecular String>
CNc1ncc2cc(-c3ccc(-c4cccc(C)n4)cc3Cl)c(=O)n(CCOC)c2n1

>  <EC50 / µM>
13

$$$$
>  <Molecular String>
Cc1cccc(-c2ccc(-c3cc4cnc(NCCCN5CCCC5=O)nc4n(CCCCN)c3=O)c(Cl)c2)n1

>  <EC50 / µM>
1.1

$$$$
>  <Molecular String>
CNc1ncc2cc(-c3ccc(-c4cccc(C)n4)cc3Cl)c(=O)n(CCCCN)c2n1

>  <EC50 / µM>
0.457

$$$$

Entry CNc1ncc2cc(-c3ccc(-c4cccc(C)n4)cc3Cl)c(=O)n(C)c2n1 ; EC50 = 4.6

Entry COc1cc(N2CCN(C)CC2)ccc1Nc1ncc2cc(-c3ccc(-c4cccc(C)n4)cc3Cl)c(=O)n(CCCCN)c2n1 ; EC50 = 38.3
